The measurements presented in this section are drawn from ChEMBL document CHEMBL3885881.

Species: Rattus norvegicus
PROCEDURE TEXT: DrugMatrix - Regimen: Daily Repeat
Type: toxicity, organism-based, Sprague-Dawley
Parameters: regimen Daily Repeat, gender Male, age 6-8 weeks
SETUP CONDITIONS: in vivo, po, 2000 mg/kg, 120 h, tissue Plasma, route oral GAVAGE, dose level High, time 5 day, vehicle .5 % CMC
ENDPOINT: CARBON DIOXIDE (mmol/L)
Answer format: numeric, mmol/L implied, no suffix.

Guide cases for CARBON DIOXIDE, answers given:
- COMPOUND: "CN/C(=N/CCSCc1nc[nH]c1C)NC#N"
  ENDPOINT: "CARBON DIOXIDE"
  UNIT SYMBOL: "mmol/L"
  MEASUREMENT: 25
- COMPOUND: "CC1(C)S[C@@H]2[C@H](NC(=O)[C@H](N)c3ccccc3)C(=O)N2[C@H]1C(=O)O"
  ENDPOINT: "CARBON DIOXIDE"
  UNIT SYMBOL: "mmol/L"
  MEASUREMENT: 24
- COMPOUND: "COc1cc2nc(N3CCN(C(=O)c4ccco4)CC3)nc(N)c2cc1OC"
  ENDPOINT: "CARBON DIOXIDE"
  UNIT SYMBOL: "mmol/L"
  MEASUREMENT: 21.33

# ---- query compound ----
Form field: reported CARBON DIOXIDE of O=C1Nc2ccc(Cl)cc2C(c2ccccc2Cl)=NC1O (centres undefined)
29.5

* * *

Species: Rattus norvegicus
PROCEDURE TEXT: DrugMatrix - Regimen: Daily Repeat
Assay type: toxicity, organism-based, Sprague-Dawley
Set-up: regimen Daily Repeat, gender Male, age 6-8 weeks
SETUP CONDITIONS: in vivo, po, 2000 mg/kg, 72 h, tissue Blood, route oral GAVAGE, dose level High, time 3 day, vehicle .5 % CMC
ENDPOINT: HEMOGLOBIN (G/DL)
Answer format: numeric, G/DL implied, no suffix.

Guide cases for HEMOGLOBIN, answers given:
- COMPOUND: "CN/C(=N/CCSCc1nc[nH]c1C)NC#N"
  UNIT SYMBOL: "G/DL"
  MEASUREMENT: 14.33
- COMPOUND: "CN(C/C=C/C#CC(C)(C)C)Cc1cccc2ccccc12"
  UNIT SYMBOL: "G/DL"
  MEASUREMENT: 15.27
- COMPOUND: "CC1(C)S[C@@H]2[C@H](NC(=O)[C@H](N)c3ccccc3)C(=O)N2[C@H]1C(=O)O"
  UNIT SYMBOL: "G/DL"
  MEASUREMENT: 13.93
- COMPOUND: "COc1cc2nc(N3CCN(C(=O)c4ccco4)CC3)nc(N)c2cc1OC"
  UNIT SYMBOL: "G/DL"
  MEASUREMENT: 13

Form field: reported HEMOGLOBIN of NC1CCN(c2nc3c(cc2F)c(=O)c(C(=O)O)cn3-c2ccc(F)cc2F)C1 (stereo unspecified)
14.85

Form field: reported HEMOGLOBIN of O=C1Nc2ccc(Cl)cc2C(c2ccccc2Cl)=NC1O (stereo unspecified)
15.07

* * *

Species on record: Rattus norvegicus
PROCEDURE TEXT: DrugMatrix - Regimen: Daily Repeat
Assay type: toxicity, organism-based, Sprague-Dawley
Design: regimen Daily Repeat, gender Male, age 6-8 weeks
SETUP CONDITIONS: in vivo, po, 10 mg/kg, 120 h, tissue Plasma, route oral GAVAGE, dose level Low, time 5 day, vehicle .5 % CMC
ENDPOINT: TOTAL PROTEIN (G/DL)
Answer format: numeric, G/DL implied, no suffix.

- COMPOUND: "O=C1C(CC[S+]([O-])c2ccccc2)C(=O)N(c2ccccc2)N1c1ccccc1 (centres undefined) [SULFINPYRAZONE]"
  ENDPOINT: "TOTAL PROTEIN"
  MEASUREMENT: 6.3

Form field: reported TOTAL PROTEIN of CNCCC(Oc1ccc(C(F)(F)F)cc1)c1ccccc1 (centres undefined) [FLUOXETINE]
6.3

Form field: reported TOTAL PROTEIN of Fc1ccc(C(c2ccc(F)cc2)N2CCN(C/C=C/c3ccccc3)CC2)cc1 [FLUNARIZINE]
6.03

Form field: reported TOTAL PROTEIN of O=C1CN=C(c2ccccc2Cl)c2cc([N+](=O)[O-])ccc2N1 [CLONAZEPAM]
6.07
